Where do these numbers come from? They come from patent US8633226B2.

I'd appreciate it if you could supply Cmax values for the items below.
Test: Electrocardiography in anesthetized rabbits
Assay type: in vivo
Conditions: male, blood; anesthetized rabbit, iv, 30 mg/kg; read-out: Cmax: Total drug at QT effect dose
Answers are plain numbers, in µM.

[[record]]
compound = "CC(C)[C@@H](NC(=O)c1cccc(S(N)(=O)=O)c1)C(=O)N1CC[C@](O)(c2ccc(Cl)cc2)C(C)(C)C1 [EX# 491]"
observable = "Cmax"
uom = "µM"
recordedmeasurement = 138


Now consider a different compound.
Input: Please give the measured Cmax for this compound: CC(C)[C@@H](NC(=O)NCC(C)(C)O)C(=O)N1CC[C@](O)(c2ccc(Cl)cc2)C(C)(C)C1 [Compound I]
Output: 202

---

Would you mind telling me the reported pKi of each entry?
Biological target: Human CCR1 (Homo sapiens (Human))
Sequence (P32246 whole entry): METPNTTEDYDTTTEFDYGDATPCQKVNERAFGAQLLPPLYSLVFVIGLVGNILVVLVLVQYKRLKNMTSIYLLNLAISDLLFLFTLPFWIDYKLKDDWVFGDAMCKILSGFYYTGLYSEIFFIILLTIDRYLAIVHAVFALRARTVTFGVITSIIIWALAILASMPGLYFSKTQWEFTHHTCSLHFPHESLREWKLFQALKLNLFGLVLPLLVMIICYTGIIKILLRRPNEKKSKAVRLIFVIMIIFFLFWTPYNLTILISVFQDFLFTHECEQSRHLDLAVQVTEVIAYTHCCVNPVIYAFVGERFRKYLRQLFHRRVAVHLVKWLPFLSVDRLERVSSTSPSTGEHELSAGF
Experiment: Human CCR1 THP-1 binding assay
Conditions: [125I]-MIP-1α competition, THP-1 cells
Numbers only, as −log10 of the molar value.

Batch request: pKi per item, same order as input.
1. CC(C)CC(=O)N[C@@H](C(=O)N1CC[C@](O)(c2ccc(Cl)cc2)C(C)(C)C1)C(C)C
2. CC(C)[C@@H](NC(=O)[C@@H]1CC[C@@H](O)C1)C(=O)N1CC[C@](O)(c2ccc(Cl)cc2)C(C)(C)C1
3. CC(C)[C@@H](NC(=O)c1cccc(S(N)(=O)=O)c1)C(=O)N1CC[C@](O)(c2ccc(Cl)cc2)C(C)(C)C1
4. CC(C)[C@@H](NC(=O)C1CCCC1)C(=O)N1CC[C@](O)(c2ccc(Cl)cc2)C(C)(C)C1
5. CC(C)NC(=O)N[C@@H](C(=O)N1CC[C@](O)(c2ccc(Cl)cc2)C(C)(C)C1)C(C)C
6. CC(C)[C@@H](NC(=O)CC(C)(C)O)C(=O)N1CC[C@](O)(c2ccc(Cl)cc2)C(C)(C)C1
7. CC(C)[C@@H](NC(=O)NCC(C)(C)O)C(=O)N1CC[C@](O)(c2ccc(Cl)cc2)C(C)(C)C1
8. CC[C@@H](C)NC(=O)N[C@@H](C(=O)N1CC[C@](O)(c2ccc(Cl)cc2)C(C)(C)C1)C(C)C

Output:
1. 8.59
2. 8.82
3. 8.68
4. 9.15
5. 9.30
6. 8.43
7. 9.15
8. 8.68

---

Provide the recorded Human Liver Microsomal Metabolism % remaining (Assay Conditions A) for the entries that follow.
Test: In vitro metabolism assay, human liver microsomes, Assay Conditions A
Assay type: in vitro ADME
Settings: 0.5 μM compound, 10 minutes, 37° C.

[[record]]
smilesstring = "CC(C)[C@@H](NC(=O)C1CCCC1)C(=O)N1CC[C@](O)(c2ccc(Cl)cc2)C(C)(C)C1"
recordedmeasurement = "47%"

[[record]]
smilesstring = "CC(C)CC(=O)N[C@@H](C(=O)N1CC[C@](O)(c2ccc(Cl)cc2)C(C)(C)C1)C(C)C"
recordedmeasurement = "67%"

[[record]]
smilesstring = "CC(C)NC(=O)N[C@@H](C(=O)N1CC[C@](O)(c2ccc(Cl)cc2)C(C)(C)C1)C(C)C"
recordedmeasurement = "99% (A)"

[[record]]
smilesstring = "CC(C)[C@@H](NC(=O)CC(C)(C)O)C(=O)N1CC[C@](O)(c2ccc(Cl)cc2)C(C)(C)C1"
recordedmeasurement = "100% (A)/100% (B)"


We now examine a further molecule.
Input: Query: Human Liver Microsomal Metabolism % remaining (Assay Conditions A); subject: CC[C@@H](C)NC(=O)N[C@@H](C(=O)N1CC[C@](O)(c2ccc(Cl)cc2)C(C)(C)C1)C(C)C
Output: 59% (A)

---

Assay: Electrocardiography in anesthetized rabbits
Format: in vivo
Details: male, blood; anesthetized rabbit, iv, NOEL dose 10 mg/kg; read-out: Cmax: Total drug at NOEL dose
Assignment: determine reported Cmax for the given compounds.
Numbers only, in µM.

[[record]]
smilesstring = "CC(C)[C@@H](NC(=O)NCC(C)(C)O)C(=O)N1CC[C@](O)(c2ccc(Cl)cc2)C(C)(C)C1"
recordedmeasurement = 65.2


Input: Bench note: what Cmax did CC(C)[C@@H](NC(=O)c1cccc(S(N)(=O)=O)c1)C(=O)N1CC[C@](O)(c2ccc(Cl)cc2)C(C)(C)C1 show?
Output: 77

---

Assay: Protein binding, human
Type: in vitro ADME
observable: fraction unbound
Answers are plain numbers.

[[record]]
molecule = "CC(C)[C@@H](NC(=O)NCC(C)(C)O)C(=O)N1CC[C@](O)(c2ccc(Cl)cc2)C(C)(C)C1 [Compound I]"
recordedmeasurement = 0.19

[[record]]
molecule = "CC(C)[C@@H](NC(=O)[C@@H]1CC[C@@H](O)C1)C(=O)N1CC[C@](O)(c2ccc(Cl)cc2)C(C)(C)C1 [EX# 572]"
recordedmeasurement = 0.16


Consider the record given below.
Input: Entry under review: CC(C)[C@@H](NC(=O)c1cccc(S(N)(=O)=O)c1)C(=O)N1CC[C@](O)(c2ccc(Cl)cc2)C(C)(C)C1 [EX# 491] . Reported fraction unbound?
Output: 0.05

---

I'd appreciate it if you could supply inhibition at 30 µM values for the items below.
Molecular target: hERG (Homo sapiens (Human), UniProt Q12809)
Sequence (Q12809 whole entry): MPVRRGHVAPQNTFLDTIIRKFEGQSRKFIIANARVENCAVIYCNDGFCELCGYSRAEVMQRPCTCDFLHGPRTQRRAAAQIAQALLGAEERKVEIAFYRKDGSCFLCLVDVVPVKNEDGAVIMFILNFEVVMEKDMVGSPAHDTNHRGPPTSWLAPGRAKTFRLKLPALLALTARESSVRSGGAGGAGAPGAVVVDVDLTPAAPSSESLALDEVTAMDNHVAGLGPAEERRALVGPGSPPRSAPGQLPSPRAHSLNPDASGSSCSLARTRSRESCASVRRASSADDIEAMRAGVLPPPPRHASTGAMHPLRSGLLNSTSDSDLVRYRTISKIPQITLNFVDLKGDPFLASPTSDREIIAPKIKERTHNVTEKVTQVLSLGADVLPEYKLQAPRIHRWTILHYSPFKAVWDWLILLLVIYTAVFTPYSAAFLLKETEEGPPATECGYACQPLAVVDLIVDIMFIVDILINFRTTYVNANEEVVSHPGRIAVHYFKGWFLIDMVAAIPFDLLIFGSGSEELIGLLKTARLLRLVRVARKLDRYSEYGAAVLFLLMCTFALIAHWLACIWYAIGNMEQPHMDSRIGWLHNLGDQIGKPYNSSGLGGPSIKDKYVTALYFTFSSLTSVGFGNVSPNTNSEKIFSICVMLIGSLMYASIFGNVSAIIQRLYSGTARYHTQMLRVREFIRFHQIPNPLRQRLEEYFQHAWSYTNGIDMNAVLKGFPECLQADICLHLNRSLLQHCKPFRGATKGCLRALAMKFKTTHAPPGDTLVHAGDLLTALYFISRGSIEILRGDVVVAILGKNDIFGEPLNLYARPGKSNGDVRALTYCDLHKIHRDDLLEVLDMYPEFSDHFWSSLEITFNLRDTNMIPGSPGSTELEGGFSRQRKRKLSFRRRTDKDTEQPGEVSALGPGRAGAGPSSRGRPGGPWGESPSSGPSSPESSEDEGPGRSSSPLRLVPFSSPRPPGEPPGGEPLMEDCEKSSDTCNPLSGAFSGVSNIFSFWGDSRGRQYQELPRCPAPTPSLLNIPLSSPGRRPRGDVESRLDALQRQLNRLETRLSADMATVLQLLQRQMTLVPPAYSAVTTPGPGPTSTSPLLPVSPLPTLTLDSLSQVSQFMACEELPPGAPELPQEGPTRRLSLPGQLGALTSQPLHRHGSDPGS
Assay: hERG patch clamp assay
Type: cell-based
Details: HEK-293 cells stably expressing hERG, pH 7.4, protein-free buffer, read-out: hERG, % inh @ 30 μM

Solved cases below.
[[record]]
compound = "CC(C)[C@@H](NC(=O)c1cccc(S(N)(=O)=O)c1)C(=O)N1CC[C@](O)(c2ccc(Cl)cc2)C(C)(C)C1 [EX# 491]"
assayedsystem = "hERG (Homo sapiens (Human), UniProt Q12809)"
observable = "inhibition at 30 µM"
recordedmeasurement = "27%"

[[record]]
compound = "CC(C)[C@@H](NC(=O)NCC(C)(C)O)C(=O)N1CC[C@](O)(c2ccc(Cl)cc2)C(C)(C)C1 [Compound I]"
assayedsystem = "hERG (Homo sapiens (Human), UniProt Q12809)"
observable = "inhibition at 30 µM"
recordedmeasurement = "29%"


Input: May I ask what inhibition at 30 µM has been recorded for CC(C)[C@@H](NC(=O)[C@@H]1CC[C@@H](O)C1)C(=O)N1CC[C@](O)(c2ccc(Cl)cc2)C(C)(C)C1 [EX# 572] ?
Output: 32%

---

Test: Electrocardiography in anesthetized rabbits
Assay type: in vivo
Conditions: male, blood; anesthetized rabbit, iv, 10 mg/kg; read-out: Cmax: Total drug at QT effect dose
observable: Cmax (µM)
Numbers only, in µM.

Input: Consider the molecule CC(C)[C@@H](NC(=O)[C@@H]1CC[C@@H](O)C1)C(=O)N1CC[C@](O)(c2ccc(Cl)cc2)C(C)(C)C1 [EX# 572] and give its measured Cmax.
Output: 48.6

---

Molecular target: human cardiac sodium channel SCN5A (Homo sapiens (Human), UniProt Q14524)
Sequence (Q14524 whole entry): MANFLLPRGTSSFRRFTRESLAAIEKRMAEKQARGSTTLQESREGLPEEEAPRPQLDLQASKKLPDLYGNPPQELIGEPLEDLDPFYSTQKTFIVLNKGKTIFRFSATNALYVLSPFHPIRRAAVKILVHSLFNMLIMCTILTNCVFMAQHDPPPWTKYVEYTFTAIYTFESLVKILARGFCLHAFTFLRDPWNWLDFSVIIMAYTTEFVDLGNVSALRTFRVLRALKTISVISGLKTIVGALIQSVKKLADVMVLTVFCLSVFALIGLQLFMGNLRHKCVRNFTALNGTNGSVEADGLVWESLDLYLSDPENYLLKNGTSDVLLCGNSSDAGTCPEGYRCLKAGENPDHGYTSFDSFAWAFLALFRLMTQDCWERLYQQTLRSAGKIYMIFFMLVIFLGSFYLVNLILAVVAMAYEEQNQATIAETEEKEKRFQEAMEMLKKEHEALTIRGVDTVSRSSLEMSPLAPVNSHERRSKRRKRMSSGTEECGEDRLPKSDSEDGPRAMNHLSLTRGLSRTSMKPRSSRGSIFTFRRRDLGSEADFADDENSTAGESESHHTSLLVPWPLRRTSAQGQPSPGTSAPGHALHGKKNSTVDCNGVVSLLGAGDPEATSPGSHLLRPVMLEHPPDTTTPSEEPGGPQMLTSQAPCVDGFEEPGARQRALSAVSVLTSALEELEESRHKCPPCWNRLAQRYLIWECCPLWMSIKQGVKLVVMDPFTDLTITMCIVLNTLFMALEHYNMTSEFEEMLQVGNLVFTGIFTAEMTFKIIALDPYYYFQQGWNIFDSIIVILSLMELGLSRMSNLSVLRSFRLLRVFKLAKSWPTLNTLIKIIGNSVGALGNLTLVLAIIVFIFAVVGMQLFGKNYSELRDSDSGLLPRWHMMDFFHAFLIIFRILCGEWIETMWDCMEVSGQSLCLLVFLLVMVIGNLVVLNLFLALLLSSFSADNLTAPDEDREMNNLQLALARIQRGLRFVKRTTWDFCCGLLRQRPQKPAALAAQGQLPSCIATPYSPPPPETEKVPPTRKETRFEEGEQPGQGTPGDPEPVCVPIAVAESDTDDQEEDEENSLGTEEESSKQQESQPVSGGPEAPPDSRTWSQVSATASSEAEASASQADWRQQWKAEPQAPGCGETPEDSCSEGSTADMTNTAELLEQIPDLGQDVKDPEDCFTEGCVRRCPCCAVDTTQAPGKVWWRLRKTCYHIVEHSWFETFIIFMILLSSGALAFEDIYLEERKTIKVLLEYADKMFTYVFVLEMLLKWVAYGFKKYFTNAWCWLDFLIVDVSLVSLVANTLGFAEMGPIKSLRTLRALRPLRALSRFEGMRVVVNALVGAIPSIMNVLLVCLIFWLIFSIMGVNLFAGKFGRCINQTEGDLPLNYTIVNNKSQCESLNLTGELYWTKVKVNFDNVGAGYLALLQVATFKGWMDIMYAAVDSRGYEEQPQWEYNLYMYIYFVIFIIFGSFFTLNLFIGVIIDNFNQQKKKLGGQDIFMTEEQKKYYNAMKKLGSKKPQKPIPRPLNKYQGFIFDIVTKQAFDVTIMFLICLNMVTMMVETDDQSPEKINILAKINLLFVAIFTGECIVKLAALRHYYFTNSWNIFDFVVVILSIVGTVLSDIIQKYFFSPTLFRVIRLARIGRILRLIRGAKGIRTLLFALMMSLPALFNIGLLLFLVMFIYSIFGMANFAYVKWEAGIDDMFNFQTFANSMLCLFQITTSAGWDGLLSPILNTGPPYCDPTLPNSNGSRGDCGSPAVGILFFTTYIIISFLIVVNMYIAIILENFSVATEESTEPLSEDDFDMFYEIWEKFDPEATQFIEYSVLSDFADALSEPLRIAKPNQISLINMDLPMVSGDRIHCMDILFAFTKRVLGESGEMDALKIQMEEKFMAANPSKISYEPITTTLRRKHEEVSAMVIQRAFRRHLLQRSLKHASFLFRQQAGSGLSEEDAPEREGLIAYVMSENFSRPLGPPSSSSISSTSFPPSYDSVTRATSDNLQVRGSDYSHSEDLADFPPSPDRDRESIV
Assay: Sodium channel whole-cell patch-clamp assay
Type: cell-based
Conditions: HEK-293 cells expressing human cardiac sodium channel SCN5A, pH 7.4, protein-free buffer, read-out: Na, % inh
observable: inhibition at 10 µM (%)
Answers are plain numbers, in %.

For orientation, consider the following solved cases.
[[record]]
compound = "CC(C)[C@@H](NC(=O)c1cccc(S(N)(=O)=O)c1)C(=O)N1CC[C@](O)(c2ccc(Cl)cc2)C(C)(C)C1 [EX# 491]"
recordedmeasurement = 13

[[record]]
compound = "CC(C)[C@@H](NC(=O)[C@@H]1CC[C@@H](O)C1)C(=O)N1CC[C@](O)(c2ccc(Cl)cc2)C(C)(C)C1 [EX# 572]"
recordedmeasurement = 25


// switching to the query compound
Input: Consider the compound shown here: CC(C)[C@@H](NC(=O)NCC(C)(C)O)C(=O)N1CC[C@](O)(c2ccc(Cl)cc2)C(C)(C)C1 [Compound I] What is its recorded inhibition at 10 µM?
Output: 12
